- Tested on: SK-OV-3
- PROTOCOL DETAILS: NCI tumour cell line growth inhibition, 48 h
Activity calls are given as the source filed them. No stated cut-off is given here; in the data, active = GI50 up to about 1.1 µM and inactive = higher.
# GI50 listing for each entry below

Past entries and their recorded results:
COMPOUND	GI50
CC(=O)Oc1ccc2c(c1OC(C)=O)CCC1C2=CC[C@]2(C)C(=O)CCC12 (stereo partly specified)	20.7 µM (inactive)
CN(C)CCNc1ccc2ncnc3c2c1C(=O)c1ccccc1-3	1.81 µM (inactive)
O=c1cnc2cc3ccccc3cc2[nH]1	> 100 µM (inactive)
COC(=O)[C@H]1[C@H](C(=O)OC)[C@@H](C)c2c(ccc3c2[nH]c2ccccc23)[C@@H]1C	92.9 µM (inactive)
CN(C(=O)C12C3C4C1C1C2C3C41C(=O)C(C)(C)C)C(C)(C)C (stereo unspecified)	> 100 µM (inactive)

stdin: Reported GI50, compound Cc1cnc(-n2c(C)nc3cc(Cl)ccc3c2=O)s1 : ____
stdout: > 100 µM (inactive)

stdin: Reported GI50, compound CC#CC(=O)Nc1ccccc1CC(c1c[nH]c2ccccc12)c1c[nH]c2ccccc12 : ____
stdout: 18.8 µM (inactive)

stdin: Reported GI50, compound COC(=O)C1=C(C)NC2=C(C(=O)c3ccccc32)C1c1cn(-c2ccccc2)nc1-c1ccccc1 (stereo unspecified) : ____
stdout: > 100 µM (inactive)

stdin: Reported GI50, compound CCN(CC)CCOC(=O)Cc1cccc2c(=O)cc(-c3ccccc3)oc12 : ____
stdout: 48.5 µM (inactive)

stdin: Reported GI50, compound O=C(Nc1ccc(N=C=S)cc1Cl)c1cc(Br)cc(Br)c1O : ____
stdout: 42.9 µM (inactive)

stdin: Reported GI50, compound Clc1ccc(CCN(CCc2ccc(Cl)c(Cl)c2)CCN2CCCC2)cc1Cl : ____
stdout: 1.78 µM (inactive)

stdin: Reported GI50, compound CN(CCCNC(=O)c1cn(C)c2c1ccc1cc(Cl)c(Cl)cc12)CCCNC(=O)c1cn(C)c2c1ccc1cc(Cl)c(Cl)cc12 : ____
stdout: 15.2 µM (inactive)

stdin: Reported GI50, compound COc1ccc(-c2oc3cc(OC)c(OC)c(OC)c3c(=O)c2OC)cc1OC : ____
stdout: > 100 µM (inactive)

stdin: Reported GI50, compound CC(C)(C)C(=O)OC(N)/C=C/c1ccccc1 (stereo unspecified) : ____
stdout: > 100 µM (inactive)

stdin: Reported GI50, compound N#CC(C#N)C1CN2CCC1CC2 (stereo unspecified) : ____
stdout: > 100 µM (inactive)

stdin: Reported GI50, compound CN(C)c1ccc(-c2[nH]c(=O)c3ccccc3[n+]2C)cc1 : ____
stdout: > 100 µM (inactive)
